- tested-target: Shiga toxin 2 (Escherichia coli O157:H7) (UniProt P09385+P09386)
- assay-comment: E. coli 0.157:H7 Shiga Toxin SOP - stx2 screening assay
- Type: functional
- Set-up: scale not given: direction of the effect not stated beside the values
- settings: 30 µM
Kindly state Percent Effect for each of the entries shown.
Lab book: enter the figure in %, no units written.

Incoming: I would be grateful if you could share the reported Percent Effect for Cc1cccc(-c2nc(C)nn2CC(=O)NC2CCCC2)c1 .
Outgoing: -29.1

Incoming: What does the data say about its Percent Effect? Entry: COCCN1CCOCC2(CCCN(Cc3ccc(C)o3)C2)C1 (configuration not stated)
Outgoing: -6.63

Incoming: Sample CC(C)(C)c1cnc(CN2CCCC2Cn2cccn2)o1 (configuration not stated) — what was its Percent Effect?
Outgoing: 0.322

Incoming: Sample CCOCc1cccc(S(=O)(=O)N2CCSCC2)c1 — what was its Percent Effect?
Outgoing: -4.15

Incoming: // lookup Percent Effect for c1ccc(-c2noc3c2CN(CC2CC2)CC3)cc1
Outgoing: -9.68

Incoming: What Percent Effect value was documented for this compound, Cc1nnc(C2Cc3ccccc3CN2Cc2ncc(C(C)(C)C)o2)o1 (configuration not stated) ?
Outgoing: 8.47

Incoming: # query: Percent Effect of entry Cc1c(C(=O)NC(C)C(C)C)nnn1-c1cccc2c1CCN(C)C2 (configuration not stated)
Outgoing: 3.53

Incoming: For the compound shown here, CC(C)c1cc(NC(=O)c2ccc(C(=O)NC(C)(C)C)cc2)[nH]n1 , give the reported Percent Effect.
Outgoing: -39.3

Incoming: State the recorded Percent Effect for this entry: Cc1cnn(CC2CN(CCS(=O)(=O)c3ccccc3)CCO2)c1 (configuration not stated)
Outgoing: 0.99

Incoming: May I ask what Percent Effect has been recorded for COC(=O)c1cc(C(=O)N2CCOCC2(C)C)n(-c2ccccc2)n1 ?
Outgoing: 13.3

Incoming: Sample O=C(Cn1nc(-c2ccc(F)cc2)oc1=O)Nc1ccccc1 — what was its Percent Effect?
Outgoing: -19.2

Incoming: Given the entry COc1ccc(CN2C[C@@H]3COC[C@]3(COc3cccnc3)C2)cc1 , report its measured Percent Effect.
Outgoing: -5.5

Value source: ChEMBL document CHEMBL3988442
